Biological target: Rat NHE-3 (Rattus norvegicus, UniProt P26433)
Construct: expressed in transfected cells; host or cells: Opossum kidney (OK) cells (ATCC), transfected by electroporation
Sequence (P26433 29-831): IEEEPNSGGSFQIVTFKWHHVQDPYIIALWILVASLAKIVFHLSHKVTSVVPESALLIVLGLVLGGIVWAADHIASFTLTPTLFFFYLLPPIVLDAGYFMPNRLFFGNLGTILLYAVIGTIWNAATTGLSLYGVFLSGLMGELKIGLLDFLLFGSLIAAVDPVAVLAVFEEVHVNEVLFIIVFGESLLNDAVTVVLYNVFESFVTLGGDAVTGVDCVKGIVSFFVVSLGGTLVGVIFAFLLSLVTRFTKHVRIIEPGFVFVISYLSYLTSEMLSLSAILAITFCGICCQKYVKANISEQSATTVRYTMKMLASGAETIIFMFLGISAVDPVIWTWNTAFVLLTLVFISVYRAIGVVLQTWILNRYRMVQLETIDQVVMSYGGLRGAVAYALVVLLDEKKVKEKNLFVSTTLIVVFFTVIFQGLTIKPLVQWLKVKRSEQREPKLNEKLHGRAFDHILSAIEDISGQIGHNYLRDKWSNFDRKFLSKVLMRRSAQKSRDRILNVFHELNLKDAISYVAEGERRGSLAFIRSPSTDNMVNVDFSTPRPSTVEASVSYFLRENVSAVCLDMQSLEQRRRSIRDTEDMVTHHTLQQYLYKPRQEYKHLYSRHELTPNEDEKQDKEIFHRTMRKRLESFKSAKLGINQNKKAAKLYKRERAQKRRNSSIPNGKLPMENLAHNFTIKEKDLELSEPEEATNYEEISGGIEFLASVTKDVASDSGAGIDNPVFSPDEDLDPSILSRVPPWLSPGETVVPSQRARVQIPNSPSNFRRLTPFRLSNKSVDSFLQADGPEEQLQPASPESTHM
Assay: Cell-based assay of NHE-3 activity (persistent inhibition, after washout)
Conditions: OK cells with rat NHE-3 gene, 60 min incubation, recovery initiated 40 min after compound washout; read-out: Rat NHE3 pIC50 (persistent) (converted)
Consider the following molecules and their measured IC50 readings.

MOLECULE	IC50
CN1Cc2c(Cl)cc(Cl)cc2[C@H](c2cccc(S(=O)(=O)NCCOCCOCCNC(=O)CCC(CCC(=O)NCCOCCOCCNS(=O)(=O)c3cccc([C@@H]4CN(C)Cc5c(Cl)cc(Cl)cc54)c3)(CCC(=O)NCCOCCOCCNS(=O)(=O)c3cccc([C@@H]4CN(C)Cc5c(Cl)cc(Cl)cc54)c3)NC(N)=O)c2)C1	< 0.1 µM
CN1Cc2c(Cl)cc(Cl)cc2[C@H](c2cccc(S(=O)(=O)NCCOCCOCCOCCn3cc(CN(Cc4cn(CCOCCOCCOCCNS(=O)(=O)c5cccc([C@@H]6CN(C)Cc7c(Cl)cc(Cl)cc76)c5)nn4)Cc4cn(CCOCCOCCOCCNS(=O)(=O)c5cccc([C@@H]6CN(C)Cc7c(Cl)cc(Cl)cc76)c5)nn4)nn3)c2)C1	> 10 µM
CCCCCCCCOc1ccc(CNC(CCC(=O)NCCOCCOCCOCCNS(=O)(=O)c2cccc([C@@H]3CN(C)Cc4c(Cl)cc(Cl)cc43)c2)(CCC(=O)NCCOCCOCCOCCNS(=O)(=O)c2cccc([C@@H]3CN(C)Cc4c(Cl)cc(Cl)cc43)c2)CCC(=O)NCCOCCOCCOCCNS(=O)(=O)c2cccc([C@@H]3CN(C)Cc4c(Cl)cc(Cl)cc43)c2)cc1	< 0.1 µM
CN1Cc2c(Cl)cc(Cl)cc2[C@H](c2cccc(S(=O)(=O)NCCOCCOCCNC(=O)CCC(N)(CCC(=O)NCCOCCOCCNS(=O)(=O)c3cccc([C@@H]4CN(C)Cc5c(Cl)cc(Cl)cc54)c3)CCC(=O)NCCOCCOCCNS(=O)(=O)c3cccc([C@@H]4CN(C)Cc5c(Cl)cc(Cl)cc54)c3)c2)C1	< 0.1 µM
CN1Cc2c(Cl)cc(Cl)cc2[C@H](c2cccc(S(=O)(=O)NCCOCCOCCNC(=O)NCCN(CCNC(=O)NCCOCCOCCNS(=O)(=O)c3cccc([C@@H]4CN(C)Cc5c(Cl)cc(Cl)cc54)c3)C(=O)NCCCCCCCCCCCCNC(=O)N(CCNC(=O)NCCOCCOCCNS(=O)(=O)c3cccc([C@@H]4CN(C)Cc5c(Cl)cc(Cl)cc54)c3)CCNC(=O)NCCOCCOCCNS(=O)(=O)c3cccc([C@@H]4CN(C)Cc5c(Cl)cc(Cl)cc54)c3)c2)C1	> 10 µM
CN1Cc2c(Cl)cc(Cl)cc2[C@H](c2cccc(S(=O)(=O)NCCOCCOCCNC(=O)CCC(CCC(=O)NCCOCCOCCNS(=O)(=O)c3cccc([C@@H]4CN(C)Cc5c(Cl)cc(Cl)cc54)c3)(CCC(=O)NCCOCCOCCNS(=O)(=O)c3cccc([C@@H]4CN(C)Cc5c(Cl)cc(Cl)cc54)c3)NC(=O)NCCN3CCOCC3)c2)C1	< 0.1 µM
CN1Cc2c(Cl)cc(Cl)cc2[C@H](c2cccc(S(=O)(=O)NCCOCCOCCNC(=O)CCC(CCC(=O)NCCOCCOCCNS(=O)(=O)c3cccc([C@@H]4CN(C)Cc5c(Cl)cc(Cl)cc54)c3)(CCC(=O)NCCOCCOCCNS(=O)(=O)c3cccc([C@@H]4CN(C)Cc5c(Cl)cc(Cl)cc54)c3)N(C)C)c2)C1	< 0.1 µM
CC(O)C(CCC(=O)NCCOCCOCCNS(=O)(=O)c1cccc([C@@H]2CN(C)Cc3c(Cl)cc(Cl)cc32)c1)(CCC(=O)NCCOCCOCCNS(=O)(=O)c1cccc([C@@H]2CN(C)Cc3c(Cl)cc(Cl)cc32)c1)CCC(=O)NCCOCCOCCNS(=O)(=O)c1cccc([C@@H]2CN(C)Cc3c(Cl)cc(Cl)cc32)c1 (stereo partly drawn)	< 0.1 µM
CN1Cc2c(Cl)cc(Cl)cc2[C@H](c2cccc(S(=O)(=O)NCCOCCOCCNC(=O)CCC(CCC(=O)NCCOCCOCCNS(=O)(=O)c3cccc([C@@H]4CN(C)Cc5c(Cl)cc(Cl)cc54)c3)(CCC(=O)NCCOCCOCCNS(=O)(=O)c3cccc([C@@H]4CN(C)Cc5c(Cl)cc(Cl)cc54)c3)NC(=O)NCCS(=O)(=O)O)c2)C1	< 0.1 µM
CCCCCCCCCCC(=O)NC(CCC(=O)NCCOCCOCCOCCNS(=O)(=O)c1cccc([C@@H]2CN(C)Cc3c(Cl)cc(Cl)cc32)c1)(CCC(=O)NCCOCCOCCOCCNS(=O)(=O)c1cccc([C@@H]2CN(C)Cc3c(Cl)cc(Cl)cc32)c1)CCC(=O)NCCOCCOCCOCCNS(=O)(=O)c1cccc([C@@H]2CN(C)Cc3c(Cl)cc(Cl)cc32)c1	0.1 to 10 µM
CN1Cc2c(Cl)cc(Cl)cc2[C@H](c2cccc(S(=O)(=O)NCCOCCOCCOCCNC(=O)CCC(CCC(=O)NCCOCCOCCOCCNS(=O)(=O)c3cccc([C@@H]4CN(C)Cc5c(Cl)cc(Cl)cc54)c3)(CCC(=O)NCCOCCOCCOCCNS(=O)(=O)c3cccc([C@@H]4CN(C)Cc5c(Cl)cc(Cl)cc54)c3)NC(=O)c3ccc(-c4ccc(Cl)cc4)cc3)c2)C1	0.1 to 10 µM
CN1Cc2c(Cl)cc(Cl)cc2[C@H](c2cccc(S(=O)(=O)NCCOCCOCCOCCNC(=O)CN(CCOCCOCCN(CC(=O)NCCOCCOCCOCCNS(=O)(=O)c3cccc([C@@H]4CN(C)Cc5c(Cl)cc(Cl)cc54)c3)CC(=O)NCCOCCOCCOCCNS(=O)(=O)c3cccc([C@@H]4CN(C)Cc5c(Cl)cc(Cl)cc54)c3)CC(=O)NCCOCCOCCOCCNS(=O)(=O)c3cccc([C@@H]4CN(C)Cc5c(Cl)cc(Cl)cc54)c3)c2)C1	< 0.1 µM
